Each recorded value in this set is attributed to paper PMC3961306.

Below, each entry is listed alongside its reported %-inhibition of SGK3.
- target-system: panel of more than 300 wild-type and mutant kinases (313 kinase panel) (Homo sapiens)
- run-description: Kinase profiling in a biochemical assay panel (mobility shift assays and ELISA), %-inhibition at 1 μM; selectivity entropy
- reported-conditions: kinase SGK3; 1 μM
The response must be a number in % with no trailing unit.

These recorded examples may help you get a feel for the data.
INSERT INTO measurements (molecule, target_system, parameter, result_units, endpoint_value) VALUES
  ('COc1cc2nccc(Oc3ccc(NC(=O)C4(C(=O)Nc5ccc(F)cc5)CC4)cc3)c2cc1OC [cabozantinib]', 'panel of more than 300 wild-type and mutant kinases (313 kinase panel) (Homo sapiens)', '%-inhibition of SGK3', '%', -1.1),
  ('CNC(=O)c1cc(Oc2ccc(NC(=O)Nc3ccc(Cl)c(C(F)(F)F)c3)c(F)c2)ccn1 [regorafenib]', 'panel of more than 300 wild-type and mutant kinases (313 kinase panel) (Homo sapiens)', '%-inhibition of SGK3', '%', -8),
  ('CC(=O)Nc1cccc(-n2c(=O)n(C3CC3)c(=O)c3c(Nc4ccc(I)cc4F)n(C)c(=O)c(C)c32)c1 [trametinib]', 'panel of more than 300 wild-type and mutant kinases (313 kinase panel) (Homo sapiens)', '%-inhibition of SGK3', '%', 0.769),
  ('N#CC[C@H](C1CCCC1)n1cc(-c2ncnc3[nH]ccc23)cn1 [ruxolitinib]', 'panel of more than 300 wild-type and mutant kinases (313 kinase panel) (Homo sapiens)', '%-inhibition of SGK3', '%', -5),
  ('COc1cc(Nc2c(C#N)cnc3cc(OCCCN4CCN(C)CC4)c(OC)cc23)c(Cl)cc1Cl [bosutinib]', 'panel of more than 300 wild-type and mutant kinases (313 kinase panel) (Homo sapiens)', '%-inhibition of SGK3', '%', -7);

In: Field request: %-inhibition of SGK3 | item: CO[C@H]1C[C@@H]2CC[C@@H](C)[C@@](O)(O2)C(=O)C(=O)N2CCCC[C@H]2C(=O)O[C@H]([C@H](C)C[C@@H]2CC[C@@H](OC(=O)C(C)(CO)CO)[C@H](OC)C2)CC(=O)[C@H](C)/C=C(\C)[C@@H](O)[C@@H](OC)C(=O)[C@H](C)C[C@H](C)/C=C/C=C/C=C/1C [temsirolimus]
Out: -4

In: Follow-up item: Cc1cn(-c2cc(NC(=O)c3ccc(C)c(Nc4nccc(-c5cccnc5)n4)c3)cc(C(F)(F)F)c2)cn1 [nilotinib]
Out: 15

In: Follow-up item: COc1cc2c(Nc3ccc(Br)cc3F)ncnc2cc1OCC1CCN(C)CC1 [vandetanib]
Out: -8
